# System: Chikungunya virus
# METHOD SUMMARY: Evaluation of antiviral activity against Chikungunya virus (EC90)
# Assay type: cell-based
# CONDITION DESCRIPTION: Chikungunya virus, read-out: EC90 (μM) CHIKV, concentration required for 90% inhibition of CHIKV

COMPOUND: COc1cc2c(cc1NC(=O)c1cnc(C)s1)CCCCC2 [Compound 33]
MEASURED TARGET: Chikungunya virus
EC90: > 30 µM

COMPOUND: COc1cc2c(cc1NC(=O)c1ccc(C(C)(C)C)cc1)CCCCN2C [Compound 65]
MEASURED TARGET: Chikungunya virus
EC90: > 30 µM

COMPOUND: COc1cc2c(cc1NC(=O)CCc1ccc(C(C)(C)C)cc1)CCCCC2 [Compound 68]
MEASURED TARGET: Chikungunya virus
EC90: > 10 µM

COMPOUND: COc1cc2c(cc1N1Cc3cc(C(C)(C)C)ccc3C1=O)CCCCC2 [Compound 60]
MEASURED TARGET: Chikungunya virus
EC90: > 10 µM

COMPOUND: CC(C)(C)c1ccc(C(=O)Nc2cc3c(cc2CO)CCCCC3)cc1 [Compound 29]
MEASURED TARGET: Chikungunya virus
EC90: > 10 µM

COMPOUND: COCCOc1cc2c(cc1NC(=O)c1ccc(C(C)(C)C)cc1)CCCCC2 [Compound 21]
MEASURED TARGET: Chikungunya virus
EC90: > 30 µM

COMPOUND: COc1cc2c(cc1NC(=O)c1oc3ccccc3c1C)CCCCC2 [Compound 79]
MEASURED TARGET: Chikungunya virus
EC90: > 10 µM

====

# METHOD SUMMARY: CC50 reported alongside the CHIKV antiviral assay (cytotoxicity)
# Assay type: cell-based
# CONDITION DESCRIPTION: cell line not given
# Description: The compounds below in Table 1 were synthesized with methods identical or analogous to those described herein. The requisite starting materials were commercially available, described in the literature, or readily synthesized by one skilled in the art of organic synthesis.
Measured CC50, listed per entry for reference.

MOLECULE: COc1cc2c(cc1NC(=O)c1cnc(C)cn1)CCCCC2 [Compound 81]
CC50: > 30 µM
//
MOLECULE: COc1cc2c(cc1NC(=O)c1ccc(C(C)(C)C)cc1)CCCCN2C
CC50: > 30 µM
//
MOLECULE: CCCOc1cc2c(cc1NC(=O)c1ccc(C(C)(C)C)cc1)CCCCC2
CC50: > 30 µM

====

# Tested on: Chikungunya virus
# METHOD SUMMARY: Evaluation of antiviral activity against Chikungunya virus (EC90)
# Type: cell-based
# CONDITION DESCRIPTION: Chikungunya virus, read-out: EC90 (μM) CHIKV, concentration required for 90% inhibition of CHIKV

COMPOUND STRING: CC(C)(C)c1ccc(C(=O)Nc2cc3c(cc2C(F)(F)F)CCCCC3)cc1
EC90: > 30 µM
--
COMPOUND STRING: CCc1ccc(C(=O)Nc2cc3c(cc2OC)CCCCC3)cc1
EC90: > 10 µM
--
COMPOUND STRING: COc1cc2c(cc1NC(=O)c1ccc(C3(O)CCC3)cc1)CCCCC2
EC90: > 10 µM
--
COMPOUND STRING: COc1cc2c(cc1NC(=O)c1ccccc1)CCCCC2
EC90: > 10 µM
--
COMPOUND STRING: COc1c(NC(=O)c2cnc(C(C)(C)C)s2)cc2c(c1F)CCCCC2
EC90: > 10 µM

====

# Test system: Chikungunya virus
# METHOD SUMMARY: Evaluation of antiviral activity against Chikungunya virus (EC90)
# Type: cell-based
# CONDITION DESCRIPTION: Chikungunya virus, read-out: EC90 (μM) CHIKV, concentration required for 90% inhibition of CHIKV
Measured EC90, listed per entry for reference.
MEASUREMENT NAME: EC90

COMPOUND STRING: COc1cc2c(cc1N1Cc3ccc(C(C)(C)C)cc3C1=O)CCCCC2
REPORTED MEASUREMENT: > 10 µM
//
COMPOUND STRING: COc1cc2c(cc1NC(=O)c1ccc(C(C)(C)C)cc1)CCCC(=O)N2C(C)C
REPORTED MEASUREMENT: > 30 µM
//
COMPOUND STRING: CC(C)(C)c1ccc(C(=O)Nc2cc3c(cc2N)CCCCC3)cc1
REPORTED MEASUREMENT: > 30 µM
//
COMPOUND STRING: CCn1nc(C(=O)Nc2ccc3c(c2)CCCCC3)cc1C
REPORTED MEASUREMENT: > 30 µM
//
COMPOUND STRING: CC(C)(C)c1ccc(C(=O)Nc2cc3c(cc2OCc2ccccn2)CCCCC3)cc1
REPORTED MEASUREMENT: > 10 µM
//
COMPOUND STRING: CN(C(=O)c1ccc(C(C)(C)C)cc1)c1ccc2c(c1)CCCCC2
REPORTED MEASUREMENT: > 10 µM
//
COMPOUND STRING: COc1cc2c(cc1NC(=O)c1ccc3nonc3c1)CCCCC2
REPORTED MEASUREMENT: > 30 µM
//
COMPOUND STRING: CC(C)(C)c1ccc(C(=O)Nc2cc3c(cc2OCc2ccc(C(F)(F)F)cc2)CCCCC3)cc1
REPORTED MEASUREMENT: > 30 µM
//
COMPOUND STRING: COc1cc2c(cc1NC(=O)C1CCOCC1)CCCCC2
REPORTED MEASUREMENT: > 10 µM
//
COMPOUND STRING: COc1cc2c(cc1NC(=O)c1ccc(-c3ccccn3)cc1)CCCCC2
REPORTED MEASUREMENT: > 10 µM

====

# METHOD SUMMARY: CC50 reported alongside the CHIKV antiviral assay (cytotoxicity)
# Type: cell-based
# CONDITION DESCRIPTION: cell line not given
# From the text: The compounds below in Table 1 were synthesized with methods identical or analogous to those described herein. The requisite starting materials were commercially available, described in the literature, or readily synthesized by one skilled in the art of organic synthesis.
Measured CC50, listed per entry for reference.

COMPOUND STRING: COc1cc2c(cc1NC(=O)c1cc(F)c(C(C)(C)C)c(F)c1)CCCCC2
CC50: > 30 µM
//
COMPOUND STRING: COc1cc2c(cc1NC(=O)c1ccc(C(C)(C)C)cc1)CCCCN2
CC50: > 30 µM
//
COMPOUND STRING: COc1cc2c(cc1NC(=O)Cc1ccc(C(C)(C)C)cc1)CCCCC2
CC50: > 30 µM
//
COMPOUND STRING: COc1cc2c(cc1N1Cc3ccc(C(C)(C)C)cc3C1=O)CCCCC2
CC50: > 30 µM
//
COMPOUND STRING: COc1cc2c(cc1NC(=O)c1oc3ccccc3c1C)CCCCC2
CC50: > 30 µM
//
COMPOUND STRING: COc1cc2c(cc1NC(=O)c1ccc(C(C)(C)C(F)(F)F)cc1)CCCCC2
CC50: 19.1 µM
//
COMPOUND STRING: COc1cc2c(cc1NC(=O)c1ccc(C(C)(C)C)c(F)c1)CCCCC2
CC50: > 30 µM
//
COMPOUND STRING: CC(C)(C)c1ccc(C(=O)Nc2ccc3c(c2)CCCCC3)cc1
CC50: 79.1 µM
